Each recorded value in this set is attributed to patent US20140051665A1.

Test system: VCaP cells
Test: CellTiter-Glo cell viability assay, VCaP
Details: Homo sapiens, 72 h, read-out: cytotoxicity IC50
PARAMETER: pIC50
Numbers only, as −log10 of the molar value.

# return pIC50 of "CC(C)c1cc(-c2nnc(O)n2-c2ccc3c(ccn3C)c2)c(O)cc1O" (system: VCaP cells)
8.15

---

Tested on: DU145 cells
Test: CellTiter-Glo cell viability assay, DU145
Conditions: read-out: cytotoxicity IC50; DU145, 72 h
PARAMETER: pIC50
Answers are plain numbers, as −log10 of the molar value.

Tell me pIC50 reported for C=CCNC1=C2C[C@@H](C)C[C@H](OC)[C@H](O)[C@@H](C)/C=C(\C)[C@H](OC(N)=O)[C@@H](OC)/C=C\C=C(/C)C(=O)NC(=CC1=O)C2=O [Compound 17-AAG, 17-AAG, reference compound]
7.44
